Each entry below lists one item and its recorded relative viability value.
- System: NCI-H2347
- METHOD_SUMMARY: relative viability (nuclei count vs DMSO), 5 days (fraction); higher = more cells survive
- EXPERIMENTAL_CONTEXT: first compound 2 µM

MOLECULE	relative viability
COCC1(CO)C(=O)C2CCN1CC2 (stereo not drawn) [PRIMA-1MET] + C[C@]1(O)C[C@@H](c2nc(-c3ccc4ccc(-c5ccccc5)nc4c3)c3c(N)nccn32)C1 [Linsitinib] (partner 1 µM)	0.697
COCC1(CO)C(=O)C2CCN1CC2 (stereo not drawn) [PRIMA-1MET] + Nc1ncn([C@H]2C[C@H](O)[C@@H](CO)O2)c(=O)n1 [Decitabine] (partner 2 µM)	0.605
COCC1(CO)C(=O)C2CCN1CC2 (stereo not drawn) [PRIMA-1MET] + Cc1cc(Nc2cc(N3CCN(C)CC3)nc(Sc3ccc(NC(=O)C4CC4)cc3)n2)n[nH]1 [Tozasertib] (partner 0.1 µM)	0.237

----------
- Test system: NCI-H1993
- METHOD_SUMMARY: relative viability (nuclei count vs DMSO), 5 days (fraction); higher = more cells survive
- EXPERIMENTAL_CONTEXT: first compound 2.53 µM
RECORDED_METRIC: relative viability

COMPOUND	RECORDED_METRIC	RECORDED_VALUE
COc1nc(C)cnc1NS(=O)(=O)c1cccnc1-c1ccc(-c2nnco2)cc1 [Zibotentan] + C[C@]1(O)C[C@@H](c2nc(-c3ccc4ccc(-c5ccccc5)nc4c3)c3c(N)nccn32)C1 [Linsitinib] (partner 1 µM)	relative viability	0.85
COc1nc(C)cnc1NS(=O)(=O)c1cccnc1-c1ccc(-c2nnco2)cc1 [Zibotentan] + Nc1ncn([C@H]2C[C@H](O)[C@@H](CO)O2)c(=O)n1 [Decitabine] (partner 2 µM)	relative viability	0.61
O=c1cc(-c2cccc3c2Sc2ccccc2S3)oc(N2CCOCC2)c1 + Nc1nc2[nH]cc(CCc3ccc(C(=O)N[C@@H](CCC(=O)O)C(=O)O)cc3)c2c(=O)[nH]1 [Pemetrexed] (partner 0.2 µM)	relative viability	0.497
COc1nc(C)cnc1NS(=O)(=O)c1cccnc1-c1ccc(-c2nnco2)cc1 [Zibotentan] + CS(=O)(=O)N1CCN(Cc2cc3nc(-c4cccc5[nH]ncc45)nc(N4CCOCC4)c3s2)CC1 [Pictilisib] (partner 1 µM)	relative viability	0.796
O=c1cc(-c2cccc3c2Sc2ccccc2S3)oc(N2CCOCC2)c1 + O=C(c1cc(Cc2n[nH]c(=O)c3ccccc23)ccc1F)N1CCN(C(=O)C2CC2)CC1 [Olaparib] (partner 8 µM)	relative viability	0.965
COc1nc(C)cnc1NS(=O)(=O)c1cccnc1-c1ccc(-c2nnco2)cc1 [Zibotentan] + CC(C)C[C@H](NC(=O)[C@H](Cc1ccccc1)NC(=O)c1cnccn1)B(O)O [Bortezomib] (partner 0.002 µM)	relative viability	1.8

----------
- System: NCI-H522
- METHOD_SUMMARY: relative viability (nuclei count vs DMSO), 5 days (fraction); higher = more cells survive
- EXPERIMENTAL_CONTEXT: first compound 0.253 µM
Entries annotated with measured relative viability

MOLECULE	relative viability
O=c1cc(-c2cccc3c2Sc2ccccc2S3)oc(N2CCOCC2)c1 + CC(=O)Nc1cccc(-n2c(=O)n(C3CC3)c(=O)c3c(Nc4ccc(I)cc4F)n(C)c(=O)c(C)c32)c1 [Trametinib] (partner 0.02 µM)	0.988
COc1nc(C)cnc1NS(=O)(=O)c1cccnc1-c1ccc(-c2nnco2)cc1 [Zibotentan] + COc1cccc2cc(-c3nc([C@H]4CC[C@H](C(=O)O)CC4)n4ncnc(N)c34)[nH]c12 [OSI-027] (partner 0.5 µM)	0.717
COc1nc(C)cnc1NS(=O)(=O)c1cccnc1-c1ccc(-c2nnco2)cc1 [Zibotentan] + NC(=O)Nc1cc(-c2cccc(F)c2)sc1C(=O)N[C@H]1CCCNC1 [AZD7762] (partner 0.2 µM)	0.862
O=c1cc(-c2cccc3c2Sc2ccccc2S3)oc(N2CCOCC2)c1 + COc1cccc2cc(-c3nc([C@H]4CC[C@H](C(=O)O)CC4)n4ncnc(N)c34)[nH]c12 [OSI-027] (partner 0.5 µM)	0.685
COc1nc(C)cnc1NS(=O)(=O)c1cccnc1-c1ccc(-c2nnco2)cc1 [Zibotentan] + O=C(CCCCCCC(=O)Nc1ccccc1)NO [Vorinostat] (partner 1 µM)	0.887
